Just for reference, ChEMBL document CHEMBL1800057 is where these values come from.

- target system: Nitric oxide synthase 1 (Homo sapiens, UniProt P29475)
- Sequence (P29475 whole entry): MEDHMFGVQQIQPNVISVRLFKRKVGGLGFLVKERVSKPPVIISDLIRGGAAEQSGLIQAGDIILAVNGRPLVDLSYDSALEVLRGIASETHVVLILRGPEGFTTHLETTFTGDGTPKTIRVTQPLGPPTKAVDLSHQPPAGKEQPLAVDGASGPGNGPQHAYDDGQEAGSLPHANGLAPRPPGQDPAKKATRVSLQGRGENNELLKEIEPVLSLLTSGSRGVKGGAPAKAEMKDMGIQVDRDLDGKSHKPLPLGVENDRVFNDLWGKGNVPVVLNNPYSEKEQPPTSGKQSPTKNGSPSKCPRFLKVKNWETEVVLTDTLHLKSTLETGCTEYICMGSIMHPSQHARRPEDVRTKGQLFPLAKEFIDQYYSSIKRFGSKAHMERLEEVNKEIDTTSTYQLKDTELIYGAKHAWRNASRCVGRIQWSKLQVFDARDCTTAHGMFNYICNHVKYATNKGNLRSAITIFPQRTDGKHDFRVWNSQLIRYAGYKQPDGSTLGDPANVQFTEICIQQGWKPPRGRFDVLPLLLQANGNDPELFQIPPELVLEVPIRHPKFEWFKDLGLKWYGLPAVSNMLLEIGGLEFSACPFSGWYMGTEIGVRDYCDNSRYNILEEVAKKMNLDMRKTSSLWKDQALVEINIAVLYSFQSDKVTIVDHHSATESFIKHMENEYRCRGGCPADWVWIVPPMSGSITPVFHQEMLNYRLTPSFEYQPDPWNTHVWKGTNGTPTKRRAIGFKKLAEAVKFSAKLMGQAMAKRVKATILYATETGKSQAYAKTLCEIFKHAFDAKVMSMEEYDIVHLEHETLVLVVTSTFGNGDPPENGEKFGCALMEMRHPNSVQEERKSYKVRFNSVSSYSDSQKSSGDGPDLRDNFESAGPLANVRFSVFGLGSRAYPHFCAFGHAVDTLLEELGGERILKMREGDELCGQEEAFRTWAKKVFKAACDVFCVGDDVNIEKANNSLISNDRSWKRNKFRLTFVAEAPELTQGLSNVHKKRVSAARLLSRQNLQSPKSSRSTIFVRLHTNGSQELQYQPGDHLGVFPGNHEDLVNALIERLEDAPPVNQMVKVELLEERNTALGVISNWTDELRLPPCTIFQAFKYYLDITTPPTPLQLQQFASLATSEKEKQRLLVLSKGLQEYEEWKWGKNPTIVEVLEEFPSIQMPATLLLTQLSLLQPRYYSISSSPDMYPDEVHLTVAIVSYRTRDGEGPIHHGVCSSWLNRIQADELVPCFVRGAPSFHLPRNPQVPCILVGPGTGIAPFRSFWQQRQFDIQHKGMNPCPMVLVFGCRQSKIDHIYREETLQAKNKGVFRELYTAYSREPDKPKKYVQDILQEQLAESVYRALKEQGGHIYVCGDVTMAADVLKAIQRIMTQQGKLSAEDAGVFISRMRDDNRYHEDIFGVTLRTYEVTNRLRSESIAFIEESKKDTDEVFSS
- experimental details: Inhibition of human nNOS expressed in HEK293 cells assessed as inhibition ionomycin induced nitric oxide production incubated for 24 hrs measured after 18 hrs of ionomycin challenge using 2,3-diaminonaphthalene by fluorescence assay
- Type: cell-based
Assign pEC50 to each entry below.
Please express pEC50 as -log10 of the molar concentration.

Briefly, pEC50 measured for O=c1cc(Cn2c(C3CCC3)nc3ncccc32)c2ccc(F)c(F)c2[nH]1 : 6.28

Form: molecule = O=c1cc(Cn2c(C3CCCC3)nc3nccnc32)c2ccc(F)c(F)c2[nH]1 ; pEC50 = 6.00

O=c1cc(Cn2c(C3CCC3)nc3nccnc32)c2cccc(F)c2[nH]1 has a reported pEC50 of 5.34

# pEC50 (molecule: COc1ccnc2c1nc(C1CCC1)n2Cc1cc(=O)[nH]c2c(F)c(F)ccc12 ) is 5.89

O=c1cc(Cn2c(C3CCCC3)nc3ccccc32)c2ccc(F)c(F)c2[nH]1 has a reported pEC50 of 6.11

The reported value for CC(C)CCc1nc2ccccc2n1Cc1cc(=O)[nH]c2c(F)c(F)ccc12 in terms of pEC50 is 6.19

Form: molecule = O=c1cc(Cn2c(CC3CC3)nc3ccccc32)c2ccc(F)c(F)c2[nH]1 ; pEC50 = 6.02

Item: O=c1cc(Cn2c(CC3CCC3)nc3ccccc32)c2ccc(F)c(F)c2[nH]1 | pEC50: 6.19

GET /value?item= Cc1ncsc1-c1nc2ccccc2n1Cc1cc(=O)[nH]c2c(F)cccc12 &field=pEC50 returns 5.37

The molecule listed as O=c1cc(Cn2c(C3CCC3)nc3c(C(F)(F)F)ccnc32)c2ccc(F)c(F)c2[nH]1 shows pEC50 equal to 5.70

Noted for O=c1cc(Cn2c(C3CCCCC3)nc3ccccc32)c2ccc(F)c(F)c2[nH]1 : its pEC50 reads 5.30

GET /value?item= O=c1cc(Cn2c(C3CCC3)nc3nccnc32)c2ccc(F)c(F)c2[nH]1 &field=pEC50 returns 6.52

pEC50 reading for O=c1cc(Cn2c(C3CC(F)(F)C3)nc3nccnc32)c2cccc(F)c2[nH]1 : 5.52

Data point: O=c1cc(Cn2c(-c3ccncc3)nc3ccccc32)c2ccc(F)c(F)c2[nH]1 ; pEC50 = 5.54

pEC50 in this record for CC(C)c1nc2ccccc2n1Cc1cc(=O)[nH]c2c(F)c(F)ccc12 : 6.19

Item: CC(C)Cc1nc2nccnc2n1Cc1cc(=O)[nH]c2c(F)c(F)ccc12 | pEC50: 6.52

// pEC50 lookup, molecule = O=c1cc(Cn2c(C3CC3)nc3ccccc32)c2ccc(F)c(F)c2[nH]1 , result: 5.85

According to the records, this molecule CC(C)Cc1nc2nccnc2n1Cc1cc(=O)[nH]c2c(F)cccc12 displays pEC50 of 5.17

The value of pEC50 measured for the molecule O=c1cc(Cn2c(C3CCC3)nc3ccccc32)c2ccc(F)c(F)c2[nH]1 turned out to be 6.49

Looking up CN(C)c1ccnc2c1nc(C1CCC1)n2Cc1cc(=O)[nH]c2c(F)c(F)ccc12 , I found its pEC50 recorded as 6.00

# pEC50 of O=c1cc(Cn2c(C3CCC3)nc3cccnc32)c2ccc(F)c(F)c2[nH]1 = 5.89

For this molecule ( CC(C)c1nc2nccnc2n1Cc1cc(=O)[nH]c2c(F)c(F)ccc12 ), measured pEC50 is 6.21

Given item O=c1cc(Cn2c(C3CCC3)nc3c(Cl)ccnc32)c2ccc(F)c(F)c2[nH]1 , the value recorded as its pEC50 is 6.12

Entry O=c1cc(Cn2c(C3CC(F)(F)C3)nc3nccnc32)c2ccc(F)c(F)c2[nH]1 ; pEC50 = 5.96

Reported pEC50 ( O=c1cc(Cn2c(C3CCC3)nc3cnccc32)c2ccc(F)c(F)c2[nH]1 ) = 4.62

Lab book: pEC50 of Cc1ccnc2c1nc(C1CCC1)n2Cc1cc(=O)[nH]c2c(F)c(F)ccc12 noted as 5.80

GET /value?item= O=c1cc(Cn2c(C3CCC3)nc3ccncc32)c2ccc(F)c(F)c2[nH]1 &field=pEC50 returns 6.14

pEC50 measured on Cc1cnccc1-c1nc2ccccc2n1Cc1cc(=O)[nH]c2c(F)c(F)ccc12 = 6.00

response.value for CCCc1nc2ccccc2n1Cc1cc(=O)[nH]c2c(F)c(F)ccc12 (field: pEC50) = 6.16

The recorded pEC50 for CC(C)Cc1nc2ccccc2n1Cc1cc(=O)[nH]c2c(F)c(F)ccc12 is 6.16

The molecule listed as Cc1ncsc1-c1nc2ccccc2n1Cc1cc(=O)[nH]c2c(F)c(F)ccc12 shows pEC50 equal to 5.82
